Biological target: Torsin-1A (Homo sapiens) (UniProt O14656)
Sequence (O14656 whole entry, looked up): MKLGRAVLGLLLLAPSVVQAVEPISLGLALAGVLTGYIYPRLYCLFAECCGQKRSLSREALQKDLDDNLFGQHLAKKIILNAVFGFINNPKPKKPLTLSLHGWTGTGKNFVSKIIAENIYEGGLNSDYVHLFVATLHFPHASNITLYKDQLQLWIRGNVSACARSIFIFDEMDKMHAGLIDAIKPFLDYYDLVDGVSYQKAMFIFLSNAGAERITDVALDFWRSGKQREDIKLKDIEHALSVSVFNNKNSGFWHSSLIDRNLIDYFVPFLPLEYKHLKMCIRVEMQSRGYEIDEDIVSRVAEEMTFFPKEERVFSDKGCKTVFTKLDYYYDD
Assay: small-molecule binders of mutant TOR1A in lysate, primary screen, cell lysate, small-molecule microarray, COS7 lysate, 635/667 nm fluorescence (AID 1150);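 further: score pools 667 nm emission and signal to noise measuring lysate protein binding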
Conditions: COS7 hTOR1A mutant lysate, 635 nm fluorescence, higher = more signal
The following molecules are shown together with reported composite z-score values.
attribute-measured: composite z-score

CC(C)(C)OC(=O)CC[C@]1(C(=O)O)N=C(c2ccc(OCCCO)cc2)O[C@H]1c1ccccc1CN=[N+]=[N-] = -0.13
COc1ccc([Si](C)(C)[C@H]2[C@H](CCn3cc([C@H](O)c4ccccc4)nn3)O[C@@]3(C(=O)N(Cc4ccc(N5CCC5=O)cc4)c4ccccc43)[C@@H]2C)cc1 = 0.489
CCOC(=O)C[C@H]1[C@H](OC(=O)c2ccc(-c3ccccc3)cc2)[C@@H](NC(=O)c2ccc3ccccc3n2)c2cc(OCCCO)ccc2N1C(=O)c1ccccc1 = 0.397
CC(C)C[C@@H]1NC(=O)[C@H]2C[C@@H](C(=O)NCCCCCC[N+](C)(C)C)[C@@H](c3cccc(OCCO)c3)N2C1=O = 0.62
C=CC[C@@]12N=C(c3ccc(OCCCO)cc3)O[C@@H]1c1ccccc1N(CCS(=O)(=O)c1ccccc1)C2=O = 0.264
COC(=O)[C@]1(CCS(=O)(=O)c2ccccc2)N=C(c2ccc(OCCCO)cc2)O[C@@H]1c1ccccc1CN=[N+]=[N-] = 0.69
COC(=O)C1(Cc2ccccc2)C=C2C(=C(C(C)C)C(=O)C2C)CN1 (centres undefined) = 0.707
CC=CC(O)C1C=CC2C(=O)N(c3ccccc3)C(=O)C2N1Nc1ccc([N+](=O)[O-])cc1 (centres undefined) = -0.213
CCOC(=O)C[C@H]1[C@H](OC(=O)c2ccc(C(=O)c3ccccc3)cc2)[C@@H](NC(=O)c2ccc3ccccc3c2)c2cc(OCCCO)ccc2N1C(=O)c1ccccc1 = 0.321
COc1ccccc1CN1C(=O)c2ccccc2[C@@H](C(=O)NC(C)C)[C@@H]1c1ccc(CO)cc1 = 0.0096
CCOC(=CC(=O)OC)CC(O)c1cccc(Cl)c1 (centres undefined) = 0.522
O=C1O[C@@H](c2ccccc2)[C@@H](c2ccccc2)N2[C@@H](c3ccccc3OCCO)[C@]3(C(=O)Nc4ccccc43)[C@@H](C(=O)NC[C@H](O)c3ccccc3)[C@H]12 = 0.297
CC(C)(C)OC(=O)CC[C@]1(C(=O)NCCN2CCOCC2)N=C(c2ccc(OCCCO)cc2)O[C@H]1c1ccccc1N=[N+]=[N-] = 1.28
COc1ccc([Si](C)(C)[C@@H]2[C@@H](CCO)O[C@]3(C(=O)N(Cc4cccc(N5C(=O)c6cccc7cccc5c67)c4)c4ccccc43)[C@H]2C)cc1 = -0.252

* * *

Experiment: S. cerevisiae RM11-1a growth modifiers, primary screen, strain RM11-1a, OD600, basal, 24 h (AID 1177);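 further: cultures grown under basal conditions with no added stressor; test concentration not given here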
Conditions: OD600, 24 h, higher = more signal, called active from +8 up or from −8 down
attribute-measured: z-score

CC(CO)N1C(=O)[C@@H]2C3C(=O)OCCC/C=C\[C@H]3OC23C=CCN(Cn2nnc4ccccc42)C(=O)[C@@H]13 (stereo partly drawn) = 0.549
CCOC(=O)C1=CC[C@@H](c2ccccc2C(F)(F)F)N(S(=O)(=O)c2ccc(C)cc2)C1 = -1.07
O=C(O)[C@H]1C[C@H]2C(=O)N3CCC[C@H]3C(=O)N2[C@H]1c1cccc(OCCO)c1 = 0.43

* * *

Test: binders of probe aHhip on microarray, primary screen, stem cell growth factor project, biochemical, small-molecule microarray, fluorescence 635/667 (AID 1087);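 further: score merges spot fluorescence at 667nm with spot signal to noise ratio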
Settings: higher = more signal
Label rule, in plain words: composite z-score of 0.03 and up is 1, under 0.03 is -1.

O=c1cccc(-c2cccc(Cl)c2)o1 = -1
CC(C)(C)OC(=O)CC[C@]1(C(=O)O)N=C(c2ccc(OCCCO)cc2)O[C@H]1c1ccccc1 = 1
O=C1c2ccccc2[C@](Cc2ccccc2I)(C(=O)NCc2ccccc2)[C@H](c2ccc(CO)cc2)N1C1CCCCC1 = 1
O=C1NC(=O)C2C1C=CC(C(O)c1ccc(Br)cc1)N2Nc1ccccn1 (stereo not given) = -1
[N-]=[N+]=Nc1ccccc1C[C@]1(C(=O)NCc2ccccc2)N=C(c2ccc(OCCCO)cc2)O[C@H]1c1ccccc1 = 1
C=CCOC(=O)[C@@H]1[C@H]2C(=O)O[C@H](c3ccccc3)[C@H](c3ccccc3)N2[C@H](c2ccc(OCCOC(=O)[C@H]3C[C@H]4C(=O)N[C@@H](CC(C)C)C(=O)N4[C@H]3c3ccc(O)cc3)cc2)[C@@]12C(=O)Nc1ccc(I)cc12 = -1
CCOc1cc(C(O)C2C=CC3C(=O)N(C)C(=O)C3N2N2CCCCC2)ccc1O (stereo not given) = -1
NC(=O)N1C(=O)C2C(C1=O)C1C=C(c3ccc(CO)cc3)C2C(C2CC2)N1Cc1sc2ccccc2c1Cl (stereo not given) = 1
CCCCN1CC=CC23O[C@@H]4C=CCOC(=O)[C@@H]4[C@H]2C(=O)N(C(C)CO)[C@@H]3C1=O (stereo not given in full) = -1
C=C1C2CC3C(=C4C(CO[C@@H]4[C@H]4CCCN4S(=O)(=O)c4ccccc4[N+](=O)[O-])C4C(=O)N(C)C(=O)C34)CC2C(=O)N1C (stereo not given in full) = -1
C#CCNC(=O)[C@H](Cc1ccccc1)NC(=O)[C@@H](N=[N+]=[N-])C(C)C = -1
COCC(=C=CC[C@H](O)c1ccc(OCCO)cc1)C[C@H](O)COCc1ccccc1 = 1
C=C(COC)/C(=C/C[C@@H](OC(=O)c1ccncc1)c1ccc(CO)o1)c1cnc2ccccc2c1 = 1
C=C(C(=O)CC[C@H](OC(=O)c1cccnc1)c1ccc(CO)o1)C(C)C = -1
CC=CC(O)C1C=CC2C(=O)N(C)C(=O)C2N1N1CCCCC1 (stereo not given) = -1
NC(=O)N1C(=O)C2C(C1=O)C1C=C(CCCO)C2C(c2cccs2)N1Cc1cc2c(cc1Br)OCO2 (stereo not given) = -1
CN1C(=O)C2C=CC(C(O)c3c(F)cccc3Cl)N(Nc3ccccc3)C2C1=O (stereo not given) = -1
C=C(/C=C/CNS(=O)(=O)c1ccc(C)cc1)[C@H](O)[C@H]1CCCN1S(=O)(=O)c1ccccc1[N+](=O)[O-] = 1
O=C(CS)NCCCCCCNC(=O)[C@H]1C[C@H]2C(=O)N[C@@H](Cc3ccccc3)C(=O)N2[C@H]1c1cccc(OCCO)c1 = -1
COC(=O)[C@H](Cc1ccccc1)N1CC(/C=C/C2CC2)=C[C@@H]1[C@@H](O)Cc1ccccc1 = 1
CC(C)CCC[C@@H](C)[C@H]1CC[C@@]2(C)C3=C(CC[C@]12C)[C@@]1(C)CC[C@H](OC(=O)c2ccc(Br)cc2)C(C)(C)C1CC3 (stereo not given in full) = -1
C=CCNC(=O)[C@H]1[C@@H]2C(=O)O[C@@H](c3ccccc3)[C@@H](c3ccccc3)N2[C@@H](c2ccccc2OCCO)[C@]12C(=O)N(C(=O)OCCOC)c1ccc(C#CC3=CCCCC3)cc12 = -1
COCCOC(=O)N1C(=O)[C@@]2(c3cc(C#CC4(O)CCCCCC4)ccc31)[C@H](C(=O)N1CCCCCCC1)[C@H]1C(=O)O[C@H](c3ccccc3)[C@H](c3ccccc3)N1[C@@H]2c1ccc(OCCO)cc1 = 1
C=CCN1C(=O)[C@@]2(CCC(=O)OC(C)(C)C)N=C(c3ccc(OCCCO)cc3)O[C@H]2c2ccccc21 = -1
COCCCNC(=O)[C@@]1(Sc2ccc(C)cc2)CC(=O)N(Cc2cc(C(F)(F)F)cc(C(F)(F)F)c2)[C@@H]1c1ccc(CO)cc1 = 1
[N-]=[N+]=NCc1ccccc1C[C@@]1(C(=O)N2CCCCC2)N=C(c2ccc(OCCCO)cc2)O[C@@H]1c1ccccc1N=[N+]=[N-] = 1
COCCOC(=O)N1C(=O)[C@@]2(c3cc(C#CCNC(N)=O)ccc31)[C@H](C(=O)N1CCCCCCC1)[C@H]1C(=O)O[C@H](c3ccccc3)[C@H](c3ccccc3)N1[C@@H]2c1ccc(O)cc1 = -1
O=C1C[C@@](C(=O)NCC(F)(F)F)(c2ccc([N+](=O)[O-])cc2)[C@@H](c2ccc(CO)cc2)N1C1CCCCC1 = 1
C[C@]1(C(=O)NCCN2CCOCC2)c2ccccc2C(=O)N(Cc2ccc(OC(F)(F)F)cc2)[C@H]1c1ccc(CO)cc1 = -1
CCOC(=O)C[C@H]1[C@H](OC(=O)c2ccccc2-c2ccccc2)[C@@H](NC(=O)CC(C)C)c2cc(OCCCO)ccc2N1C(=O)c1ccc2ccccc2n1 = -1

* * *

Tested on: glycogen synthase kinase-3 (GSK3A per assay name; protocol says GSK3B)
Assay: GSK3 binders on small-molecule microarrays, primary screen, biochemical, small-molecule microarray, 635 nm fluorescence, GSK3A (AID 1103); further: the record names both GSK3A and GSK3B
Conditions: small-molecule microarray binding, fluorescence 635 nm; higher = more signal
The following compounds are shown together with reported composite z-score values.
attribute-measured: composite z-score

O=C1NC(=O)C2C1C=CC(C(O)c1cc(C(F)(F)F)cc(C(F)(F)F)c1)N2Nc1ccc(Cl)cc1Cl (stereo not given) = -0.514
C=CCOC(=O)[C@H]1[C@@H]2C(=O)O[C@@H](c3ccccc3)[C@@H](c3ccccc3)N2[C@@H](c2ccc(OCCOC(=O)[C@H]3C[C@H]4C(=O)N[C@@H](Cc5ccccc5)C(=O)N4[C@H]3c3ccc(O)cc3)cc2)[C@]12C(=O)Nc1ccc(I)cc12 = 0.98
Cc1ccc(F)cc1S(=O)(=O)N[C@@H]1CCN(Cc2ccc(Oc3ccccc3)cc2)C1 = -0.632
[N-]=[N+]=NCc1ccccc1C[C@@]1(C(N)=O)N=C(c2ccc(OCCCO)cc2)O[C@@H]1c1ccccc1CN=[N+]=[N-] = 0.989
CCCC[C@@H]1C[C@H]1[C@@H](NC(=O)c1cccnc1)c1ccc(-c2ccccc2)cc1 = -1.2
COc1ccccc1CN1C(=O)c2ccccc2[C@@H](C(=O)NC(C)C)[C@@H]1c1ccc(CO)cc1 = 1.23
CC(C)(C)OC(=O)CC[C@]1(C(=O)N2CCOCC2)N=C(c2ccc(OCCCO)cc2)O[C@H]1c1ccccc1 = 0.488
CC(C)CNC(=O)[C@@H]1c2ccccc2C(=O)N(Cc2cc(F)cc(C(F)(F)F)c2)[C@H]1c1ccc(CO)cc1 = 0.13
CN(C)CCCCNC(=O)[C@H]1C[C@H]2C(=O)N[C@@H](CCCCN(C)C)C(=O)N2[C@H]1c1cccc(OCCO)c1 = 1.29
CC[C@@H]1[C@H]2C3C(=O)N(CC)C(=O)C3CC(=O)[C@H]2[C@H](c2ccc(C)cc2)N1S(=O)(=O)c1ccc(C)cc1 (stereo not given in full) = 1.27
Cc1ccc(S[C@]2(C(=O)NCC(F)(F)F)CC(=O)N(Cc3ccccc3)[C@@H]2c2ccc(CO)cc2)cc1 = -0.507
CCOC(=O)[C@@H]1[C@@H]2C(=O)N(CC)C(=O)[C@@H]2C[C@@H]1Sc1ccccc1 = 0.177
COCC(=C=CC[C@H](O)c1ccc(OCCO)cc1)C[C@H](O)COCc1ccccc1 = 0.351
NCCCCCCNC(=O)[C@H]1C[C@H]2C(=O)N[C@@H](Cc3ccccc3)C(=O)N2[C@H]1c1ccc(O)cc1 = 0.481
O=C1O[C@@H](c2ccccc2)[C@@H](c2ccccc2)N2[C@@H](c3ccccc3OCCO)[C@]3(C(=O)Nc4ccc(C#CC5=CCCCC5)cc43)[C@@H](C(=O)NC[C@H](O)c3ccccc3)[C@H]12 = 1.3
